Target: human full-length MKNK1 (Homo sapiens, UniProt Q9BUB5, T385D)
Construct: GST (N)
Sequence (Q9BUB5 1-424 isoform Q9BUB5-2 T344D): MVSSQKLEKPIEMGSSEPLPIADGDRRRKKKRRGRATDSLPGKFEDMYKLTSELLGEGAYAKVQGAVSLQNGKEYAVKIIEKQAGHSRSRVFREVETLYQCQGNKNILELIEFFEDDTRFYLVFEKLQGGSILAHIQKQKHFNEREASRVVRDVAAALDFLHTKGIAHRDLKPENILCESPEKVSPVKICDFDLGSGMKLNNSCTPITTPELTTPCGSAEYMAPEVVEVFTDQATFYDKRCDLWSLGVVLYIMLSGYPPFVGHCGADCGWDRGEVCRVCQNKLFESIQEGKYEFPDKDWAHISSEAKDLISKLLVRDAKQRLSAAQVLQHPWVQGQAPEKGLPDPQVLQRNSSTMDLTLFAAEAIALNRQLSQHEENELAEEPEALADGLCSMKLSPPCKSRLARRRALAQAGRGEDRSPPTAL
Assay: MKNK1 kinase high ATP assay (TR-FRET)
Conditions: high ATP (2 mM final), 15 min preincubation with enzyme, GST-MKNK1 (T344D)
Property: IC50; scope: individual molecules

{"columns": ["Molecule", "Test Target", "IC50 [nM]"],
 "data": [
  ["O=C(N1CCOCC1)N1CCc2c(sc3ncnc(Nc4cc5cn[nH]c5cn4)c23)C1 [Example 24]", "human full-length MKNK1 (Homo sapiens, UniProt Q9BUB5, T385D)", 28],
  ["COc1cc2[nH]ncc2cc1Nc1ncnc2sc3c(c12)CCN(C(=O)c1ccc(Cl)n1C)C3 [Example 76]", "human full-length MKNK1 (Homo sapiens, UniProt Q9BUB5, T385D)", 10],
  ["COc1cc2[nH]ncc2cc1Nc1ncnc2sc3c(c12)CCN(C(=O)CCCS(C)(=O)=O)C3 [Example 9]", "human full-length MKNK1 (Homo sapiens, UniProt Q9BUB5, T385D)", 2],
  ["C[C@@H]1CN(C(=O)N2CCc3c(sc4ncnc(Nc5cnc6[nH]ncc6c5)c34)C2)C[C@H](C)O1 [Example 35]", "human full-length MKNK1 (Homo sapiens, UniProt Q9BUB5, T385D)", 27]
]}

---

Molecular target: human full-length MKNK1 (Homo sapiens, UniProt Q9BUB5, T385D)
Construct: GST (N)
Experiment: MKNK1 kinase high ATP assay (TR-FRET)
Conditions: high ATP (2 mM final), 15 min preincubation with enzyme, GST-MKNK1 (T344D)
Range-based classes on measured IC50: class 0 = under 4 nM, class 1 = from 4 nM up to 30 nM, class 2 = 30 nM and over

{"columns": ["Compound", "Test Target", "Label Class"],
 "data": [
  ["CS(=O)(=O)N1CCc2c(sc3ncnc(Nc4cnc5[nH]ncc5c4)c23)C1 [Example 40]", "human full-length MKNK1 (Homo sapiens, UniProt Q9BUB5, T385D)", "class 2"],
  ["COc1nc2[nH]ncc2cc1Nc1ncnc2sc3c(c12)CCN(C(=O)N1CCOCC1)C3 [Example 52]", "human full-length MKNK1 (Homo sapiens, UniProt Q9BUB5, T385D)", "class 1"],
  ["COc1cc2[nH]ncc2cc1Nc1ncnc2sc3c(c12)CCN(C(=O)N1[C@@H](C)COC[C@@H]1C)C3 [Example 101]", "human full-length MKNK1 (Homo sapiens, UniProt Q9BUB5, T385D)", "class 1"],
  ["CN(C)C(=O)N1CCc2c(sc3ncnc(Nc4ccc5[nH]c(=O)sc5c4)c23)C1 [Example 17]", "human full-length MKNK1 (Homo sapiens, UniProt Q9BUB5, T385D)", "class 2"],
  ["COc1cc2[nH]ncc2cc1Nc1ncnc2sc3c(c12)CCN(C(=O)N1CCCCC1)C3 [Example 70]", "human full-length MKNK1 (Homo sapiens, UniProt Q9BUB5, T385D)", "class 1"],
  ["COc1cc2[nH]ncc2cc1Nc1ncnc2sc3c(c12)CCN(S(C)(=O)=O)C3 [Example 37]", "human full-length MKNK1 (Homo sapiens, UniProt Q9BUB5, T385D)", "class 0"],
  ["COc1cc2[nH]ncc2cc1Nc1ncnc2sc3c(c12)CCN(CCCN1C[C@@H](C)O[C@@H](C)C1)C3 [Example 89]", "human full-length MKNK1 (Homo sapiens, UniProt Q9BUB5, T385D)", "class 0"],
  ["COc1cc2[nH]ncc2cc1Nc1ncnc2sc3c(c12)CCN(C(=O)C1CCCCC1)C3 [Example 92]", "human full-length MKNK1 (Homo sapiens, UniProt Q9BUB5, T385D)", "class 0"],
  ["COc1cc2[nH]ncc2cc1Nc1ncnc2sc3c(c12)CCN(C(=O)N1CCOC[C@H]1C)C3 [Example 96]", "human full-length MKNK1 (Homo sapiens, UniProt Q9BUB5, T385D)", "class 0"],
  ["CSc1cc2[nH]ncc2cc1Nc1ncnc2sc3c(c12)CCN(S(C)(=O)=O)C3 [Example 48]", "human full-length MKNK1 (Homo sapiens, UniProt Q9BUB5, T385D)", "class 1"],
  ["CC(C)(C)OC(=O)N1CCc2c(sc3ncnc(Nc4ccc5[nH]c(=O)sc5c4)c23)C1 [Example 3]", "human full-length MKNK1 (Homo sapiens, UniProt Q9BUB5, T385D)", "class 2"],
  ["COc1cc2[nH]ncc2cc1Nc1ncnc2sc3c(c12)CCN(CCCn1cccc1)C3 [Example 84]", "human full-length MKNK1 (Homo sapiens, UniProt Q9BUB5, T385D)", "class 1"],
  ["CS(=O)(=O)N1CCc2c(sc3ncnc(Nc4ccc5[nH]c(=O)sc5c4)c23)C1 [Example 39]", "human full-length MKNK1 (Homo sapiens, UniProt Q9BUB5, T385D)", "class 2"]
]}

---

Target: human full-length MKNK1 (Homo sapiens, UniProt Q9BUB5, T385D)
Construct: GST (N)
Assay: MKNK1 kinase high ATP assay (TR-FRET)
Conditions: high ATP (2 mM final), 15 min preincubation with enzyme, GST-MKNK1 (T344D)
Property Measured: IC50

{"columns": ["Molecule Smiles", "Property Measured", "Result"],
 "data": [
  ["COc1cc2[nH]ncc2cc1NCCN(C)C(=O)N1CCc2c(sc3ncnc(Nc4cc5cn[nH]c5cc4OC)c23)C1", "IC50", "48 nM"],
  ["CSc1cc2[nH]ncc2cc1Nc1ncnc2sc3c(c12)CCN(C(=O)N(C)C)C3", "IC50", "87 nM"],
  ["O=c1[nH]c2ccc(Nc3ncnc4sc5c(c34)CCN(CCN3CCOCC3)C5)cc2s1", "IC50", "236 nM"],
  ["C[C@@H]1CN(C(=O)N2CCc3c(sc4ncnc(Nc5ccc6[nH]ncc6c5)c34)C2)C[C@H](C)O1", "IC50", "21 nM"],
  ["COc1cc2[nH]ncc2cc1Nc1ncnc2sc3c(c12)CCN(C(=O)CC(F)(F)F)C3", "IC50", "6 nM"],
  ["CC(C)(C)OC(=O)N1CCc2c(sc3ncnc(Nc4cc5cn[nH]c5cn4)c23)C1", "IC50", "79 nM"],
  ["CC(C)(C)OC(=O)N1CCc2c(sc3ncnc(Nc4cc5cn[nH]c5cc4Br)c23)C1", "IC50", "31 nM"],
  ["COc1cc2[nH]ncc2cc1Nc1ncnc2sc3c(c12)CCN(C(=O)N1CCCC1)C3", "IC50", "10 nM"],
  ["O=C(N1CCOCC1)N1CCc2c(sc3ncnc(Nc4ccc5[nH]c(=O)sc5c4)c23)C1", "IC50", "216 nM"],
  ["COc1nc2[nH]ncc2cc1Nc1ncnc2sc3c(c12)CCNC3", "IC50", "87 nM"],
  ["CC(C)C(=O)N1CCc2c(sc3ncnc(Nc4cc5cn[nH]c5cn4)c23)C1", "IC50", "28 nM"],
  ["O=C(N1CCOCC1)N1CCc2c(sc3ncnc(Nc4cnc5[nH]ncc5c4)c23)C1", "IC50", "118 nM"],
  ["COc1cc2[nH]ncc2cc1Nc1ncnc2sc3c(c12)CCN(CCN1CCOCC1)C3", "IC50", "9 nM"],
  ["COc1cc2[nH]ncc2cc1Nc1ncnc2sc3c(c12)CCN(C(=O)OC(C)(C)C)C3", "IC50", "6 nM"],
  ["C[C@@H]1CN(C(=O)N2CCc3c(sc4ncnc(Nc5cc6cn[nH]c6cn5)c34)C2)C[C@H](C)O1", "IC50", "70 nM"],
  ["CN1CCC(C(=O)N2CCc3c(sc4ncnc(Nc5ccc6[nH]c(=O)sc6c5)c34)C2)CC1", "IC50", "90 nM"],
  ["O=C(N1CCOCC1)N1CCc2c(sc3ncnc(Nc4cc5cn[nH]c5cc4Cl)c23)C1", "IC50", "57 nM"]
]}

---

Molecular target: human full-length MKNK1 (Homo sapiens, UniProt Q9BUB5, T385D)
Construct: GST (N)
Test: MKNK1 kinase high ATP assay (TR-FRET)
Settings: high ATP (2 mM final), 15 min preincubation with enzyme, GST-MKNK1 (T344D)
Property Measured: IC50

{"columns": ["Compound", "Result"],
 "data": [
  ["CC(C)C(=O)N1CCc2c(sc3ncnc(Nc4ccc5[nH]c(=O)sc5c4)c23)C1 [Example 18]", "0.113 µM"],
  ["COc1cc2[nH]ncc2cc1Nc1ncnc2sc3c(c12)CCN(C(=O)N1CCOCC1)C3 [Example 42]", "0.022 µM"],
  ["COc1cc2[nH]ncc2cc1Nc1ncnc2sc3c(c12)CCN(CCN1CCCC1=O)C3 [Example 85]", "0.01 µM"],
  ["COc1cc2[nH]ncc2cc1Nc1ncnc2sc3c(c12)CCN(C(=O)N1C[C@@H](C)O[C@H](C)C1)C3 [Example 95]", "0.003 µM"],
  ["CSc1cc2[nH]ncc2cc1Nc1ncnc2sc3c(c12)CCN(C(=O)C1CCN(C)CC1)C3 [Example 74]", "0.004 µM"],
  ["CN1CCC(C(=O)N2CCc3c(sc4ncnc(Nc5ccc6[nH]ncc6c5)c34)C2)CC1 [Example 69]", "0.016 µM"],
  ["CN1CCC(C(=O)N2CCc3c(sc4ncnc(Nc5cc6cn[nH]c6cn5)c34)C2)CC1 [Example 77]", "0.028 µM"],
  ["CC(C)(C)OC(=O)N1CCc2c(sc3ncnc(Nc4cnc5[nH]ncc5c4)c23)C1 [Example 6]", "0.047 µM"],
  ["CS(=O)(=O)N1CCc2c(sc3ncnc(Nc4ccn5nccc5c4)c23)C1 [Example 36]", "0.157 µM"],
  ["c1nc(Nc2ccc3[nH]ncc3c2)c2c3c(sc2n1)CN(CCN1CCOCC1)CC3 [Example 61]", "0.025 µM"],
  ["CCOCCN(C)C(=O)N1CCc2c(sc3ncnc(Nc4cc5cn[nH]c5cc4OC)c23)C1 [Example 78]", "1.02 µM"],
  ["CSc1cc2[nH]ncc2cc1Nc1ncnc2sc3c(c12)CCN(C(=O)N1CCOCC1)C3 [Example 47]", "0.061 µM"],
  ["CSc1cc2[nH]ncc2cc1Nc1ncnc2sc3c(c12)CCNC3 [Example 1]", "0.024 µM"],
  ["CN(C)C(=O)N1CCc2c(sc3ncnc(Nc4cc5cn[nH]c5cc4Br)c23)C1 [Example 29]", "0.037 µM"],
  ["COc1cc2[nH]ncc2cc1Nc1ncnc2sc3c(c12)CCN(C(=O)N1[C@H](C)COC[C@H]1C)C3 [Example 93]", "0.004 µM"],
  ["COc1cc2[nH]ncc2cc1Nc1ncnc2sc3c(c12)CCN(C(=O)c1ccno1)C3 [Example 102]", "0.005 µM"],
  ["COc1cc2[nH]ncc2cc1Nc1ncnc2sc3c(c12)CCN(C(=O)C1CCCC1)C3 [Example 91]", "0.003 µM"],
  ["COc1cc2[nH]ncc2cc1Nc1ncnc2sc3c(c12)CCN(CCC(=O)N(C)C)C3 [Example 71]", "0.019 µM"],
  ["COc1cc2[nH]ncc2cc1Nc1ncnc2sc3c(c12)CCN(C(=O)c1cccn1C)C3 [Example 73]", "0.007 µM"],
  ["CC(C)C(=O)N1CCc2c(sc3ncnc(Nc4ccc5[nH]ncc5c4)c23)C1 [Example 19]", "0.015 µM"],
  ["COc1cc2[nH]ncc2cc1Nc1ncnc2sc3c(c12)CCN(CCCN1CCOCC1=O)C3 [Example 87]", "0.016 µM"],
  ["COc1cc2[nH]ncc2cc1Nc1ncnc2sc3c(c12)CCN(C(=O)N1C[C@H](C)O[C@@H](C)C1)C3 [Example 94]", "0.003 µM"],
  ["COc1cc2[nH]ncc2cc1Nc1ncnc2sc3c(c12)CCN(C(=O)N(C)CCC(F)(F)F)C3 [Example 99]", "0.002 µM"],
  ["O=C(N1CCOCC1)N1CCc2c(sc3ncnc(Nc4ccc5[nH]ncc5c4)c23)C1 [Example 43]", "0.048 µM"],
  ["COc1nc2[nH]ncc2cc1Nc1ncnc2sc3c(c12)CCN(C(=O)OC(C)(C)C)C3 [Example 59]", "0.005 µM"],
  ["CS(=O)(=O)N1CCc2c(sc3ncnc(Nc4cc5cn[nH]c5cc4Cl)c23)C1 [Example 49]", "0.125 µM"],
  ["CC(C)C(=O)N1CCc2c(sc3ncnc(Nc4cnc5[nH]ncc5c4)c23)C1 [Example 21]", "0.04 µM"],
  ["CN1CCC(C(=O)N2CCc3c(sc4ncnc(Nc5cnc6[nH]ncc6c5)c34)C2)CC1 [Example 67]", "0.053 µM"],
  ["CN(C)C(=O)N1CCc2c(sc3ncnc(Nc4ccc5[nH]ncc5c4)c23)C1 [Example 15]", "0.032 µM"],
  ["COc1cc2[nH]ncc2cc1Nc1ncnc2sc3c(c12)CCN(Cc1ccn(C)n1)C3 [Example 98]", "0.011 µM"],
  ["CS(=O)(=O)N1CCc2c(sc3ncnc(Nc4cc5cn[nH]c5cn4)c23)C1 [Example 23]", "0.025 µM"],
  ["COc1cc2[nH]ncc2cc1Nc1ncnc2sc3c(c12)CCN(C(=O)c1cocn1)C3 [Example 81]", "0.005 µM"],
  ["COc1cc2[nH]ncc2cc1Nc1ncnc2sc3c(c12)CCN(C(=O)c1cnc[nH]1)C3 [Example 75]", "0.006 µM"]
]}
